These data points were gathered from patent US11286247B2.

# ASSAY_PROCEDURE: Aqueous solubility assay
# Type: physicochemical
# CONDITION_DESCRIPTION: thermodynamic from solid; water, shaken three days, HPLC; read-out: Solubility, Water
Binned solubility at 3 days; ranges: bucket A = under 10 µg/mL, bucket B = from 10 µg/mL up to 200 µg/mL, bucket C = 200 µg/mL and over

Solved entries:
COC1=CC(=O)N(NC(=O)/C=C\n2cnc(-c3cc(C(F)(F)F)cc(C(F)(F)F)c3)n2)C1 :: bucket A
O=C(/C=C\n1cnc(-c2cc(C(F)(F)F)cc(C(F)(F)F)c2)n1)NN1CCCC1=O :: bucket B

Which band does O=C(/C=C\n1cnc(-c2cc(C(F)(F)F)cc(C(F)(F)F)c2)n1)NNc1cnccn1 [KPT-330, Selinexor, reference compound] fall in? bucket A

State the class of the compound shown: "COCCN1C(=O)CCN1C(=O)/C=C\n1cnc(-c2cc(C(F)(F)F)cc(C(F)(F)F)c2)n1" bucket C

# bin label for "O=C(/C=C\n1cnc(-c2cc(C(F)(F)F)cc(C(F)(F)F)c2)n1)NN1CCOCC1=O" bucket B

Band for the recorded solubility at 3 days of "CN1C(=O)CCN1C(=O)/C=C\n1cnc(-c2cc(C(F)(F)F)cc(C(F)(F)F)c2)n1" ? bucket C

Kindly identify the class of "O=C(/C=C\n1cnc(-c2cc(C(F)(F)F)cc(C(F)(F)F)c2)n1)N1CCCN1" . bucket B

Into which bin does this compound go? "CN1CCC2(CC1)CC(=O)N(NC(=O)/C=C\n1cnc(-c3cc(C(F)(F)F)cc(C(F)(F)F)c3)n1)C2" bucket B

Band for the recorded solubility at 3 days of "O=C(/C=C\n1cnc(-c2cc(C(F)(F)F)cc(C(F)(F)F)c2)n1)N1CCC(=O)N1CC1CC1" ? bucket B
